# subject-of-test: CYCLIN K (nuclear staining in CAL-120 cells) (Homo sapiens)
# Construct: endogenous in cells; host or cells: CAL-120 human breast cancer cells (DSMZ ACC 459)
# Sequence (O75909 whole entry): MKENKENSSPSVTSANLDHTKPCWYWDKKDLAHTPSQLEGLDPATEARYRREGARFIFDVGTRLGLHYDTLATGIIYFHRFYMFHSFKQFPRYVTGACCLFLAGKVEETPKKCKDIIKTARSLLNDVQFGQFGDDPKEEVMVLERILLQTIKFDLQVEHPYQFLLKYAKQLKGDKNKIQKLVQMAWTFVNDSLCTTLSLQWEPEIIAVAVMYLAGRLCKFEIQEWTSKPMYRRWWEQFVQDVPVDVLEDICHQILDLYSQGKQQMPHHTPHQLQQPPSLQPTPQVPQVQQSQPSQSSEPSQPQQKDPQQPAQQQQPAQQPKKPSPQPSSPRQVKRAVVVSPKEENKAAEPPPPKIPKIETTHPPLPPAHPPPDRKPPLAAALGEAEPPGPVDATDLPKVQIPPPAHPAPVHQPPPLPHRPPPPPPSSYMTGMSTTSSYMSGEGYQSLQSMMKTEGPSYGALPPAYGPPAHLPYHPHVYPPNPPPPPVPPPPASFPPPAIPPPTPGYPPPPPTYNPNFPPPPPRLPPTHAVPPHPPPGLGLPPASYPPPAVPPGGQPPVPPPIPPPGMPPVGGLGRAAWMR
# Sequence (Q9NYV4 whole entry partner): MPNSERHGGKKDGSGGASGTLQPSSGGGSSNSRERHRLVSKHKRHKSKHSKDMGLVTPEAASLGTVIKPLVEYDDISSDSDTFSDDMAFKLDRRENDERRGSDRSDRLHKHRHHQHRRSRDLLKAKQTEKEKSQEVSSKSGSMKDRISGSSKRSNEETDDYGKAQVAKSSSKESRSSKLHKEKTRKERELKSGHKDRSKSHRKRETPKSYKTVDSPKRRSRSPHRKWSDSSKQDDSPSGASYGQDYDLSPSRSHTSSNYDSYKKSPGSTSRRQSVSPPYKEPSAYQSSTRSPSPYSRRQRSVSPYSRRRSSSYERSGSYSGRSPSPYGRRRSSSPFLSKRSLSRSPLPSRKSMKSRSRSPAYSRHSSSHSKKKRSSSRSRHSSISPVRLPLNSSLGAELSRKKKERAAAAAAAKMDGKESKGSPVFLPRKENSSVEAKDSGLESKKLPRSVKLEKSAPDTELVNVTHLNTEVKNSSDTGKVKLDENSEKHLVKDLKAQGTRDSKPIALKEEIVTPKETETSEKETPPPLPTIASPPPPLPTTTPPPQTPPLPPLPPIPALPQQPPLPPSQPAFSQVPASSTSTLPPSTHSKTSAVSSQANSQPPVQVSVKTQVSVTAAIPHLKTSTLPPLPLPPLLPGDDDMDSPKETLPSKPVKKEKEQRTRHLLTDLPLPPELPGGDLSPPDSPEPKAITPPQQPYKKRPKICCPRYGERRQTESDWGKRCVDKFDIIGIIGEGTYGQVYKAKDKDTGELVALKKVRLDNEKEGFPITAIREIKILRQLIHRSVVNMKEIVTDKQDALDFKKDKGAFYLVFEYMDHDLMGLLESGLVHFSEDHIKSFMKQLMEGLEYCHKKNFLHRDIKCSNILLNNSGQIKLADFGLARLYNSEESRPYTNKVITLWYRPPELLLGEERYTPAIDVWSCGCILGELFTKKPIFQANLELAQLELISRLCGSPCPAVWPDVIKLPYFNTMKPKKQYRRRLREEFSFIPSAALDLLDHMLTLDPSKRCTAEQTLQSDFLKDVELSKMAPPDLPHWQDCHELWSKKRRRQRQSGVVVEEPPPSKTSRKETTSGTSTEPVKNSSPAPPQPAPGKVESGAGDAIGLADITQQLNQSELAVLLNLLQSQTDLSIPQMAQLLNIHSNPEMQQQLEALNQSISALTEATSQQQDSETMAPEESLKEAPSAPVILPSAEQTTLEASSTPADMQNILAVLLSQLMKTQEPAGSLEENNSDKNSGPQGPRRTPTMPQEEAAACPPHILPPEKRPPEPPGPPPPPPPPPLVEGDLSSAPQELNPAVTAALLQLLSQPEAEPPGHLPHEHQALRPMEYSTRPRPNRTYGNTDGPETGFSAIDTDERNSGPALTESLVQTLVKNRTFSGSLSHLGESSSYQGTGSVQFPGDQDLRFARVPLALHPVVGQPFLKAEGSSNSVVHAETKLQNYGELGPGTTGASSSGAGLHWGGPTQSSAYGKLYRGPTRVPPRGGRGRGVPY
# assay-method-text: CYCLIN K nuclear protein level: immunofluorescence high content analysis (CAL-120)
# Format: cell-based
# details: 24 h, 50% reduction of nuclear CCNK staining intensity, median, read-out: CYCLIN K degradation IF, DC50-[mol/l] (median)
reported-metric: log10(DC50) (log10 of the value in nM)
Annotation: log10 of DC50, nM basis.

Answer for every listed entry: what is its log10(DC50)? The entries follow.
1. Fc1ccc2[nH]c(CNc3nc(N4CCOCC4)nc4c(C5CC5(F)F)cnn34)nc2c1F (stereo not shown)
2. Fc1ccc2[nH]c(CNc3nc(N4CCOCC4)nc4c(CC(F)(F)F)cnn34)nc2c1F
3. CN1CCN(c2nc(NCc3nc4cc(Cl)ccc4[nH]3)n3ncc(C(F)(F)F)c3n2)CC1
4. Fc1cccc2[nH]c(CNc3nc(N4CCNCC4)nc4c(C5CC5)cnn34)nc12
5. COc1ccc2[nH]c(CNc3nc(N4C[C@@H](C)O[C@@H](C)C4)nc4c(Br)cnn34)nc2c1
6. CC(C)c1cnn2c(NCc3ncc(-c4ccccc4)[nH]3)nc(N3CCOCC3)nc12
7. Cc1cnn2c(NCc3nc4c(F)c(F)ccc4[nH]3)nc(N3CCOCC3)nc12

**A:**
-0.14
-0.12
0.16
-0.99
-0.85
0.61
-0.28

----------
# subject-of-test: CDK2/CycE (Homo sapiens)
# assay-method-text: CDK2/CycE kinase assay (TR-FRET, 2 mM ATP)
# details: 2 mM ATP (high ATP); median; read-out: CDK2/CyclinE, 2 mM ATP (high ATP), IC50 (median)
pIC50: −log10 of the molar value.
Please respond with reported pIC50 for every item in the list.

Example cases with answers are listed next.
compound: COc1cccc2[nH]c(CNc3nc(N4CCOCC4)nc4c(-c5nccs5)cnn34)nc12
subject-of-test: CDK2/CycE (Homo sapiens)
pIC50: < 4.70
//
compound: Fc1cccc2[nH]c(CNc3nc(N4CCOCC4)nc4c(C(F)(F)F)cnn34)nc12
subject-of-test: CDK2/CycE (Homo sapiens)
pIC50: < 4.89
//
compound: Fc1ccc2[nH]c(CNc3nc(N4CCOCC4)nc4c(-c5cncs5)cnn34)nc2c1F.O=C(O)C(F)(F)F
subject-of-test: CDK2/CycE (Homo sapiens)
pIC50: < 4.70
//
compound: Fc1ccc2[nH]c(CNc3nc(N4CCOCC4)nc4c(C5CC5(F)F)cnn34)nc2c1 (single isomer, unassigned) [Example 314]
subject-of-test: CDK2/CycE (Homo sapiens)
pIC50: < 4.70

Answer for every listed entry: what is its pIC50? The entries follow.
1. CCNC1CCN(c2nc(NCc3nc4ccccc4[nH]3)n3ncc(Br)c3n2)CC1
2. CC(C)c1cnn2c(NCc3nc4ccccc4[nH]3)nc(N3CCOC(C)(C)C3)nc12
3. Clc1cc2nc(CNc3nc(N4CCOCC4)nc4c(-c5ccnnc5)cnn34)[nH]c2cc1Cl.O=C(O)C(F)(F)F
4. CN1CCN(c2nc(NCc3nc4c(F)c(F)ccc4[nH]3)n3ncc(CC(F)(F)F)c3n2)CC1
5. FC(F)(F)Oc1cccc2[nH]c(CNc3nc(N4C[C@H]5CC[C@@H](C4)N5)nc4c(Br)cnn34)nc12
6. CN1CCN(c2nc(NCc3nc4cc(C(F)(F)F)ccc4[nH]3)n3ncc(C4CC4)c3n2)CC1

**A:**
["< 4.71", "< 4.78", "< 4.70", "< 4.70", "< 4.70", "< 4.70"]

----------
# subject-of-test: CDK12/CycK (Homo sapiens, UniProt Q9NYV4)
# Sequence (Q9NYV4 with tags, fused parts or gaps, one chain of several): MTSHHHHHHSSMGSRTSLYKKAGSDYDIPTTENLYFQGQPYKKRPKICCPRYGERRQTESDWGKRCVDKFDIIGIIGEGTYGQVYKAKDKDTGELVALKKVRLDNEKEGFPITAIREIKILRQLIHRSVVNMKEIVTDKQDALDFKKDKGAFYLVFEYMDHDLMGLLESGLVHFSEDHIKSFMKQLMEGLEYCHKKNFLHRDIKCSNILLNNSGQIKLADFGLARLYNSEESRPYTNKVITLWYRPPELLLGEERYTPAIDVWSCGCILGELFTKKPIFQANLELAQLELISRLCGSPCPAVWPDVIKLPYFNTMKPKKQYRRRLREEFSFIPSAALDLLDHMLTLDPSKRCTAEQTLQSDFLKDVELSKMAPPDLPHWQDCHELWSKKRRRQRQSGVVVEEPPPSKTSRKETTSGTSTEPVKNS
# assay-method-text: CDK12/CycK high ATP kinase assay (TR-FRET, 2 mM ATP)
# details: 2 mM ATP (high ATP); median; read-out: CDK12/CyclinK, 2 mM ATP (high ATP), IC50-[mol/l] (median)
reported-metric: IC50

Example cases with answers are listed next.
compound: CN1CCN(c2nc(NCc3nc4c(F)c(F)ccc4[nH]3)n3ncc(CC(F)(F)F)c3n2)CC1
reported-metric: IC50
result: > 20 µM

compound: CN1CCCC2CN(c3nc(NCc4nc5ccccc5[nH]4)n4ncc(Br)c4n3)CC21 (stereo not drawn)
reported-metric: IC50
result: > 20 µM

compound: CC(C)c1cnn2c(NCc3nnc(-c4ccccc4)[nH]3)nc(N3CCN(C)CC3)nc12
reported-metric: IC50
result: > 20 µM

Answer for every listed entry: what is its IC50? The entries follow.
1. CN1CCN(c2nc(NCc3nc4cc(F)c(F)cc4[nH]3)n3ncc(C4CC4)c3n2)CC1
2. Cc1ccc2[nH]c(CNc3nc(N4CCN(C)CC4)nc4c(C5CC5)cnn34)nc2c1
3. COc1cccc2[nH]c(CNc3nc(N4CCN(C)CC4)nc4c(C5CC5)cnn34)nc12
4. CC(C)c1cnn2c(NCc3nc4ccccc4[nH]3)nc(Nc3ccncc3)nc12

**A:**
1. > 20 µM
2. > 20 µM
3. 9.53 µM
4. > 16.4 µM

Answer for every listed entry: what is its IC50? The entries follow.
1. FC(F)n1cc(-c2cnn3c(NCc4nc5cc(Cl)c(Cl)cc5[nH]4)nc(N4CCOCC4)nc23)cn1
2. CN1CCN(c2nc(NCc3nc4ccccc4[nH]3)n3ncc(Br)c3n2)CC1=O

**A:**
1: > 12.9 µM; 2: 11.1 µM

----------
Please respond with reported DC50 for every item in the list.
# subject-of-test: CDK12 (nuclear staining in CAL-120 cells) (Homo sapiens, UniProt Q9NYV4)
# Construct: endogenous in cells; host or cells: CAL-120 human breast cancer cells (DSMZ ACC 459)
# assay-method-text: CDK12 nuclear protein level: immunofluorescence/high content analysis (CAL-120)
# Format: cell-based
# details: CAL-120 cells, 24 h, immunofluorescence; 50% reduction of nuclear CDK12 staining intensity; median; read-out: CDK12 degradation IF, DC50- [mol/l] (median)
Answers are plain numbers, in nM.

compound: CN1CCN(c2nc(NCc3nc4cc(Cl)c(Cl)cc4[nH]3)n3ncc(Br)c3n2)CC1 [Example 330]
DC50, nM: 2.89
//
compound: CNC1CCN(c2nc(NCc3nc4ccccc4[nH]3)n3ncc(Br)c3n2)CC1 [Example 272]
DC50, nM: 7.24

Let us move to another entry and its DC50.
Entry c1ccc2[nH]c(CNc3nc(N4CCNCC4)nc4c(C5CC5)cnn34)nc2c1 [Example 247] ; DC50 = 1.38

----------
Please respond with reported log10 of DC50 for every item in the list.
# subject-of-test: CDK12 (nuclear staining in CAL-120 cells) (Homo sapiens)
# Construct: endogenous in cells; host or cells: CAL-120 human breast cancer cells (DSMZ ACC 459)
# assay-method-text: CDK12 nuclear protein level: immunofluorescence/high content analysis (CAL-120)
# Format: cell-based
# details: CAL-120 cells, 24 h, immunofluorescence; 50% reduction of nuclear CDK12 staining intensity; median; read-out: CDK12 degradation IF, DC50- [mol/l] (median)
Annotation: log10 of DC50, nM basis.

Example cases with answers are listed next.
compound: C[C@@H]1CN(c2nc(NCc3nc4ccccc4[nH]3)n3ncc(Br)c3n2)C[C@H](C)N1
subject-of-test: CDK12 (nuclear staining in CAL-120 cells) (Homo sapiens)
readout-number: 0.21
--
compound: Brc1cnn2c(NCc3nc4ccccc4[nH]3)nc(OC3CCNCC3)nc12
subject-of-test: CDK12 (nuclear staining in CAL-120 cells) (Homo sapiens)
readout-number: 1.65
--
compound: C[C@H]1CN(c2nc(NCc3nnc(-c4cccc(F)c4)[nH]3)n3ncc(Br)c3n2)CCN1C
subject-of-test: CDK12 (nuclear staining in CAL-120 cells) (Homo sapiens)
readout-number: 0.72
--
compound: CN1CCN(c2nc(NCc3nc4cc(F)ccc4[nH]3)n3ncc(Br)c3n2)CC1
subject-of-test: CDK12 (nuclear staining in CAL-120 cells) (Homo sapiens)
readout-number: 0.00
--
compound: CCN1CCN(c2nc(NCc3nc4ccccc4[nH]3)n3ncc(Br)c3n2)CC1
subject-of-test: CDK12 (nuclear staining in CAL-120 cells) (Homo sapiens)
readout-number: 1.03
--
compound: C[C@@H]1CN(c2nc(NCc3nc4cc(F)ccc4[nH]3)n3ncc(Br)c3n2)C[C@H](C)O1
subject-of-test: CDK12 (nuclear staining in CAL-120 cells) (Homo sapiens)
readout-number: 0.01

Answer for every listed entry: what is its log10 of DC50? The entries follow.
1. Fc1ccc(-c2nnc(CNc3nc(N4CCOCC4)nc4c(Br)cnn34)[nH]2)cc1F
2. Brc1cnn2c(NCc3nc4cccnc4[nH]3)nc(N3CCNCC3)nc12.O=CO [Example 19, formic acid salt]
3. CN1CCN(c2nc(NCc3nc4ccccc4[nH]3)n3ncc(Br)c3n2)CC1
4. C[C@@H]1CN(c2nc(NCc3nc4ccccc4[nH]3)n3ncc(Br)c3n2)CCN1
5. OCC1CN(c2nc(NCc3nc4ccccc4[nH]3)n3ncc(Br)c3n2)C1
6. CN(CC(C)(C)O)c1nc(NCc2nc3cc(F)c(Cl)cc3[nH]2)n2ncc(Br)c2n1
7. Cc1ccnc2[nH]c(CNc3nc(N4CCOCC4)nc4c(C(C)C)cnn34)nc12

**A:**
0.83
1.04
0.47
-0.27
1.87
-0.05
0.81
